# assayText: NCI Yeast Anticancer Drug Screen. Data for the rad50 strain (AID 155);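 note: 0% = growth of vehicle-only cultures of the same strain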
# studyConditions: S. cerevisiae rad50 strain growth inhibition; at 5.0 µM (retest, dose inferred, filed as 0.5); active compounds read high
The panel holds about 79,000 compounds, 15% with a hit somewhere; the sample as a whole holds those more often.
metric: growth inhibition (%)

[
  {
    "compound": "O=C(O)C1(Cc2ccc3c(c2)CCC3)Cc2ccccc2C1",
    "unit": "%",
    "readoutNumber": 18
  },
  {
    "compound": "CN(N(P(c1ccccc1)c1ccccc1)P(c1ccccc1)c1ccccc1)P(c1ccccc1)c1ccccc1",
    "unit": "%",
    "readoutNumber": -1
  },
  {
    "compound": "CCCCCCCCCCOC(=O)Nc1ccc(C)c(NC(=O)OCCCCCCCCCC)c1",
    "unit": "%",
    "readoutNumber": 0
  },
  {
    "compound": "COc1c2c(cc3c1c(=O)c1ccccc1n3C)OCO2",
    "unit": "%",
    "readoutNumber": -12
  },
  {
    "compound": "CCCCCCCCCCC(=O)CC(=O)c1c(O)cccc1O",
    "unit": "%",
    "readoutNumber": -14
  },
  {
    "compound": "COc1cccc(C2c3cc4c(cc3OC(NNc3ccccc3)C2C)OCO4)c1O (stereo not given)",
    "unit": "%",
    "readoutNumber": -8
  },
  {
    "compound": "O=[N+]([O-])c1cc(Cl)cc(C(c2cc(Cl)cc([N+](=O)[O-])c2O)C(Cl)(Cl)Cl)c1O",
    "unit": "%",
    "readoutNumber": 52
  },
  {
    "compound": "CCCCCCCCCCCCc1ccc(S(=O)(=O)O)cc1.[Zn+2]",
    "unit": "%",
    "readoutNumber": -2
  },
  {
    "compound": "CN(C)CCCNc1c2ccccc2nc2cccc([N+](=O)[O-])c12",
    "unit": "%",
    "readoutNumber": 93
  },
  {
    "compound": "O=C(Nc1cccc(Cl)c1)OCCN(CCOC(=O)Nc1cccc(Cl)c1)C(=O)Nc1cccc(Cl)c1",
    "unit": "%",
    "readoutNumber": 31
  }
]

---

# assayText: NCI Yeast Anticancer Drug Screen. Data for the mlh1 rad18 strain (AID 175)
# studyConditions: S. cerevisiae mlh1 rad18 strain growth inhibition; at 50.0 µM; active compounds read high
This is part of a sample that, as a whole, favours compounds with a hit. Of some 79,000 tested, about 15% had one in any assay.
Could you label it label 1 if measured growth inhibition is 70% or higher, and label 0 otherwise?

[
  {
    "molecule": "CC1(C)OC2C(COC(c3ccccc3)(c3ccccc3)c3ccccc3)OC(n3cnc4c(=O)[nH]cnc43)C2O1 (stereo not given)",
    "categoryLabel": "label 0"
  },
  {
    "molecule": "O=C1/C(=C/c2ccc(Cl)cc2)CSC/C1=C\\c1ccc(Cl)cc1",
    "categoryLabel": "label 0"
  },
  {
    "molecule": "C(=C\\N1CCCCC1)/c1nnnn1-c1ccccc1",
    "categoryLabel": "label 1"
  },
  {
    "molecule": "O=S1Nc2ccccc2S1 (stereo not given)",
    "categoryLabel": "label 1"
  },
  {
    "molecule": "c1ccc(-c2cc(CN3CCOCC3)c(-c3ccccc3)o2)cc1",
    "categoryLabel": "label 0"
  },
  {
    "molecule": "Fc1ccc(NC(=S)SCc2ccccc2)cc1F",
    "categoryLabel": "label 1"
  },
  {
    "molecule": "CC(CC(=O)c1ccc2sc3ccccc3c2c1)C(=O)O (stereo not given)",
    "categoryLabel": "label 0"
  },
  {
    "molecule": "CC(=O)c1c2c(cc3c1CC1(C3)Cc3cc4c(c(C(=O)O)c3C1)CCCC4)CCCC2 (stereo not given) (tested in a mixture with another compound)",
    "categoryLabel": "label 1"
  },
  {
    "molecule": "O=C(n1c2ccccc2c2n[nH]c(=S)nc21)C(F)(F)F",
    "categoryLabel": "label 1"
  },
  {
    "molecule": "O=C(Nc1ccc(C2=NCCN2)cc1)c1ccc(C(=O)Nc2ccc(C3=NCCN3)cc2)c(Cl)c1",
    "categoryLabel": "label 1"
  }
]

Numbers sourced from PubChem BioAssay (NCI).
